Assay: gradient 5% acetonitrile 3 min, to 50% in 2 min, to 85% in 15 min, held 3 min, 100 µL/min
Conditions: column: Zorbax Extend-C18 2.1 x 50 mm; eluents: water / acetonitrile, 0.1% formic acid
test.readout: RP-LC retention time (s)

{"columns": ["compound", "unit.string", "RP-LC retention time"],
 "data": [
  ["CCOC(=O)C1=C(CN2CCC(C)CC2)NC(=O)NC1c1ccc(C)cc1 (stereo not given)", "s", 656]
]}

a. O=C(c1cn(-c2cc(-c3nc(C4CC4)no3)ccn2)cn1)N1CCOCC1
b. Cc1sc(-c2noc(C3CC3)n2)cc1S(=O)(=O)N1CCC(C(=O)N2CCCCCC2)CC1
**Query** Sorting by RP-LC retention time in descending order, would a or b appear first? Please indicate the selected item by its label.
**Result** b
(b: 1050 s, a: 708 s)

---

Assay: gradient 5% acetonitrile 3 min, to 50% in 2 min, to 85% in 15 min, held 3 min, 100 µL/min
Details: column: Zorbax Extend-C18 2.1 x 50 mm; eluents: water / acetonitrile, 0.1% formic acid
test.readout: RP-LC retention time (s)

{"columns": ["molecule", "measured.result"],
 "data": [
  ["CC(C)NC(=O)CSc1nnc(CNC(=O)c2ccc(S(=O)(=O)N(C)C)cc2)o1", 625],
  ["CCn1cnc(S(=O)(=O)N2CCCC(C(=O)NC3CCCCCCC3)C2)c1 (stereo not given)", 788],
  ["CC(C)(C)NCC(O)COc1cccc2[nH]c(=O)[nH]c12 (stereo not given)", 603],
  ["CCc1nnc(-c2ccc3ccn(CC(=O)Nc4ccc(NC(C)=O)cc4)c3c2)o1", 703],
  ["CCCNC(=O)C1CCCN(c2ccc(SCC(=O)Nc3ccccc3C(=O)OC)nn2)C1 (stereo not given)", 705]
]}

1. CN(C)c1cc(-n2cnc(C(=O)Nc3ccc4c(c3)OCCO4)c2)ncn1
2. O=C(c1cn(-c2cc(N3CCSCC3)ncn2)cn1)N1CCC(Cc2ccccc2)CC1
**Query** Higher RP-LC retention time between 1 and 2 ? Give the label under which the chosen entry appears.
**Result** 2
(2: 1090 s, 1: 755 s)

P. COc1ccc(F)cc1S(=O)(=O)Nc1ccc(CC(=O)NCC(F)(F)F)cc1
Q. O=C(c1cc2ccccc2o1)N1CCN(Cc2ccsc2)CC1
R. Cc1cc(C)c2nc(-c3ccc4ccccc4c3)cc(C(=O)O)c2c1
**Query** Kindly order the items shown according to RP-LC retention time, from the highest value down. Would you mind listing the labels in the order requested?
**Result** R, P, Q

P. COC(=O)c1ncn2c1C(=O)N(c1ccc(C)cc1)C(C)(C(=O)NCc1ccccc1)C2 (stereo not given)
Q. Cc1cccc(Nc2nc(C(=O)NCCC3=CCCCC3)nc3ccccc23)c1
**Query** Identify the item whose RP-LC retention time is the smaller number: P or Q // respond with label for picked entry
**Result** P
(P: 692 s, Q: 995 s)

---

Experiment: gradient 5% acetonitrile 3 min, to 50% in 2 min, to 85% in 15 min, held 3 min, 100 µL/min
Settings: column: Zorbax Extend-C18 2.1 x 50 mm; eluents: water / acetonitrile, 0.1% formic acid
test.readout: RP-LC retention time (s)

{"columns": ["compound", "RP-LC retention time / s"],
 "data": [
  ["CCCn1cc(CCNS(=O)(=O)c2cccc(C)c2)c2cccnc21", 866],
  ["Cc1sc(-c2cc(C(F)(F)F)on2)cc1S(=O)(=O)Nc1cccc(Cl)c1", 1180],
  ["O=c1c2nc(-c3cccc(Cl)c3)cn2ccn1-c1ccc(F)cc1", 864],
  ["N#Cc1ccc(C(=O)NC(Cc2ccccc2)c2nnc(N3CCCC3)o2)cc1 (centres undefined)", 778],
  ["CCc1ccc(C(=O)CC2(O)C(=O)Nc3ccc(C)cc32)cc1 (centres undefined)", 804],
  ["CN(CCNC(=O)c1ncoc1-c1ccco1)Cc1ccccc1", 630],
  ["Cc1cc(C)cc(NC(=O)Cn2c(-c3cnccn3)nc(C)c(C)c2=O)c1", 774],
  ["O=C(Cn1cccc1-c1nnc(-c2ccccc2)o1)Nc1ccc2c(c1)OCCO2", 897],
  ["Cc1[nH]c(C(=O)N2CCC(CC(=O)NCc3cccc(Cl)c3)CC2)c(C)c1C(=O)OC(C)C", 868]
]}
